Test system: human erythrocytes
method: Hemolytic activity assay
Type: cell-based
recordedConditions: 64 μM; human RBC in PB, 37°C, 1 h; OD420; total lysis control 0.1% SDS; three technical replicates
Where a SMILES comes first, the peptide text is derived from it. [ ]: non-standard residue; d: D form. hArg = N=C(N)NCCCC[C@H](N)C(=O)O; 2Thi = N[C@@H](Cc1cccs1)C(=O)O; Dab = NCC[C@H](N)C(=O)O
quantityName: Hemolysis rate (%)
Expressed in %, but write only the number.

Query :: Request the reported Hemolysis rate (%) associated with CC(C)C[C@H](NC(=O)[C@H](Cc1ccc(O)cc1)NC(=O)[C@H](CCN)NC(=O)[C@H](CC(C)C)NC(=O)[C@H](CC(C)C)NC(=O)[C@H](CCN)NC(=O)[C@H](CCN)NC(=O)[C@H](Cc1ccccc1)NC(=O)[C@H](CC(C)C)NC(=O)[C@H](CCCCNC(=N)N)NC(=O)[C@@H](N)CCN)C(=O)N[C@@H](CCCNC(=N)N)C(=O)N[C@@H](CCN)C(=O)N[C@@H](Cc1ccccc1)C(N)=O [UP12] (H-[Dab][hArg]LF[Dab][Dab]LL[Dab]YLR[Dab]F-NH2)
Result :: 45.13

Switching to the query record.
Query :: Request the reported Hemolysis rate (%) associated with CC(C)C[C@H](NC(=O)[C@H](Cc1ccc(O)cc1)NC(=O)[C@H](CCCCN)NC(=O)[C@H](CC(C)C)NC(=O)[C@H](CC(C)C)NC(=O)[C@H](CCCCN)NC(=O)[C@H](CCCCN)NC(=O)[C@H](Cc1ccccc1)NC(=O)[C@H](CC(C)C)NC(=O)[C@H](CCCNC(=N)N)NC(=O)[C@@H](N)CCCCN)C(=O)N[C@@H](CCCNC(=N)N)C(=O)N[C@@H](CCCCN)C(=O)N[C@@H](Cc1cccs1)C(N)=O [UP08] (H-KRLFKKLLKYLRK[2Thi]-NH2)
Result :: 52.49

###

Test system: proteases secreted by S. aureus ATCC 25923
method: in vitro
recordedConditions: Staphylococcus aureus, S. aureus ATCC 25923 culture supernatant, pH 8
Method: The stabilities of the peptides toward proteases secreted by E. coli ATCC 25922, P. aeruginosa ATCC 27853, A. baumannii ATCC 19606, S. aureus ATCC 25923, and C. albicans ATCC 10231 were also examined. Microbial supernatants were prepared by resuspending single colonies of each strain in 20 mL of an appropriate culture medium followed by incubation at 37°C overnight. […] The samples were incubated at 37°C for 24 h in a water bath and then analyzed by RP-HPLC as described above.
Where a SMILES comes first, the peptide text is derived from it. [ ]: non-standard residue; d: D form. hArg = N=C(N)NCCCC[C@H](N)C(=O)O; 2Thi = N[C@@H](Cc1cccs1)C(=O)O
Reported remaining at 24 h, 0.5 mg/mL values for the following compounds.
Expressed in %, but write only the number.

Sample answers from the record:
Query :: Give the reported remaining at 24 h, 0.5 mg/mL for CC(C)C[C@H](NC(=O)[C@H](Cc1ccc(O)cc1)NC(=O)[C@H](CCCCN)NC(=O)[C@H](CC(C)C)NC(=O)[C@H](CC(C)C)NC(=O)[C@H](CCCCN)NC(=O)[C@H](CCCCN)NC(=O)[C@H](Cc1ccccc1)NC(=O)[C@H](CC(C)C)NC(=O)[C@H](CCCNC(=N)N)NC(=O)[C@@H](N)CCCCNC(=N)N)C(=O)N[C@@H](CCCNC(=N)N)C(=O)N[C@@H](CCCCN)C(=O)N[C@@H](Cc1cccs1)C(N)=O [UP10] (H-[hArg]RLFKKLLKYLRK[2Thi]-NH2) (system: proteases secreted by S. aureus ATCC 25923).
Result :: 31.6

Query :: // repeat for CC(C)C[C@H](NC(=O)[C@H](CC(C)C)NC(=O)[C@@H](CCCCN)NC(=O)[C@@H](CCCCN)NC(=O)[C@H](Cc1ccccc1)NC(=O)[C@H](CC(C)C)NC(=O)[C@@H](CCCNC(=N)N)NC(=O)[C@H](N)CCCCN)C(=O)N[C@H](CCCCN)C(=O)N[C@@H](Cc1ccc(O)cc1)C(=O)N[C@@H](CC(C)C)C(=O)N[C@H](CCCNC(=N)N)C(=O)N[C@H](CCCCN)C(=O)N[C@@H](Cc1ccccc1)C(N)=O [DP06] (H-[dK][dR]LF[dK][dK]LL[dK]YL[dR][dK]F-NH2) and report
Result :: 86.4

Switching to the query record.
Query :: Give the reported remaining at 24 h, 0.5 mg/mL for CC(C)C[C@H](NC(=O)[C@H](CCCCN)NC(=O)[C@H](CCCCN)NC(=O)[C@H](Cc1ccccc1)NC(=O)[C@H](CC(C)C)NC(=O)[C@H](CCCNC(=N)N)NC(=O)[C@@H](N)CCCCN)C(=O)N[C@@H](CC(C)C)C(=O)N[C@@H](CCCCN)C(=O)N[C@@H](Cc1ccc(O)cc1)C(=O)N[C@@H](CC(C)C)C(=O)N[C@@H](CCCNC(=N)N)C(=O)N[C@H](CCCCN)C(=O)N[C@@H](Cc1ccccc1)C(N)=O [DP03] (H-KRLFKKLLKYLR[dK]F-NH2) (system: proteases secreted by S. aureus ATCC 25923).
Result :: 73.5
